Assay: In vivo pharmacokinetic study in mice (i.v. or s.c.), FAC and payload in blood
Set-up: species or system mouse
Conditions: male, C57/B16, whole blood, iv; Mouse; unconj. BTK Degrader dosed itself (i.v. per row label); API dose 10 umol/kg; read-out: Payload (BTK Degrader) Cmax
READOUT: Cmax (nM)

[[record]]
given_smiles = "Cc1c(NC(=O)c2ccc(C(C)(C)O)cc2F)cc(F)cc1-c1ncnc2[nH]c(-c3ccc(CN4CCC(OC5CCN(CCn6cccc(CN7CCC(=O)NC7=O)c6=O)CC5)CC4)cc3)cc12"
u = "nM"
reading = 1600


----------
Assay: BTK FAC plasma stability assay, dog plasma
Format: in vitro ADME
Below, each entry is listed alongside its reported Plasma stability (h) dog.
READOUT: Plasma stability (h) dog

[[record]]
compound = "CCCCCCCCCCCN(C(=O)CCCCCCCCCC(=O)O)C(CCC(=O)NCCOCCOCCOCCOCCOCCOCCOCCOCCOCCOCCOCCOCCC(=O)N1CCN(CC(=O)OC(C)(C)c2ccc(C(=O)Nc3cc(F)cc(-c4ncnc5[nH]c(-c6ccc(CCN7CCC8(CC7)CCN(C(=O)c7ccc(OC)c(N9CCC(=O)NC9=O)c7)CC8)cc6)cc45)c3C)c(F)c2)CC1)C(=O)O (stereo not drawn) [Example A22]"
readout = "Plasma stability (h) dog"
reading = ">48 h"

[[record]]
compound = "CCCCCCCCCCCN(C(=O)CCCCCCCCCC(=O)O)C(CCC(=O)NCCOCCOCCOCCOCCOCCOCCOCCOCCOCCOCCOCCOCCC(=O)NCc1ccc(C(=O)OC(C)(C)c2ccc(C(=O)Nc3cc(F)cc(-c4ncnc5[nH]c(-c6ccc(CCN7CCC8(CC7)CCN(C(=O)c7ccc(OC)c(N9CCC(=O)NC9=O)c7)CC8)cc6)cc45)c3C)c(F)c2)cc1)C(=O)O (stereo not drawn) [Example A14]"
readout = "Plasma stability (h) dog"
reading = ">48 h"

[[record]]
compound = "CCCCCCCCCCCN(C(=O)CCCCCCCCCC(=O)O)C(CCC(=O)NCCOCCOCCOCCOCCOCCOCCOCCOCCOCCOCCOCCOCCC(=O)N1CCC(CC(=O)OC(C)(C)c2ccc(C(=O)Nc3cc(F)cc(-c4ncnc5[nH]c(-c6ccc(CCN7CCC8(CC7)CCN(C(=O)c7ccc(OC)c(N9CCC(=O)NC9=O)c7)CC8)cc6)cc45)c3C)c(F)c2)CC1)C(=O)O (stereo not drawn) [Example A21]"
readout = "Plasma stability (h) dog"
reading = ">48 h"


Values were extracted from patent US20240216513A1.
